system: OVCAR-3 human ovarian adenocarcinoma cell line; test: SRB cell proliferation (cytotoxicity) assay, OVCAR-3; conditions: OVCAR-3
Record form. Attribute: TGI: Concentration for total inhibition of cell growth. Fill in for each entry.
Give bare numbers, in µM.

Illustrative cases are given below, each with its answer.
CTGACACAGCAGGTTGGTGCCAACTAACACCATAAGAATACCCCGCTCCAAATAAGCCCACACGTAAACCCGAGTCGAGCAATCTCGAAAT (nucleic acid, chemistry not given here, DNA aptamer that recognizes human galectin-1) DNA: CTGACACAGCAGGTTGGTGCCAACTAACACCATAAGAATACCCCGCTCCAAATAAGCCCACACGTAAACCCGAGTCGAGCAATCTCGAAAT: 41.931
AGCTGACACAGCAGGTTGGTGCCCAAAAGAGCCAATCCACGACGACACCCCAAAAACCATATCACGAATACCCGAGTCGAGCAATCTCGAAAT (nucleic acid, chemistry not given here) DNA: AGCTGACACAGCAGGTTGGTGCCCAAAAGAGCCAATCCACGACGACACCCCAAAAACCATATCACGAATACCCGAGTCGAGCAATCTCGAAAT: 45.952
AGCTGACACAGCAGGTTGGTGCGCCCAATACAGGCGCAGTATCTGTCCGTGGGCCGGGTAAAAGTTACGGACCGAGTCGAGCAATCTCGAAAT (nucleic acid, chemistry not given here) DNA: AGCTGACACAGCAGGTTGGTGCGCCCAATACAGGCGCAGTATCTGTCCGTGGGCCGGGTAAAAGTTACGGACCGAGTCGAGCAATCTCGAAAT: 37.711

Could you now consider this next molecule?
Consider the molecule AGCTGACACAGCAGGTTGGTGCCAACAAGAAAAGAAACCGTTACAGAAGACACTACAGAATAAGTGAAAAGCCGAGTCGAGCAATCTCGAAAT (nucleic acid, chemistry not given here) DNA: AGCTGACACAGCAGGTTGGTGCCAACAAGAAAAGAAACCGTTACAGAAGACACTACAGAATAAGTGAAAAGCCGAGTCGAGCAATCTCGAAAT and give its measured TGI: Concentration for total inhibition of cell growth.
39.740
